Each recorded value in this set is attributed to patent US20240360101A1.

# GVS weight loss, initial desorption cycle per record follows
- protocolText: Gravimetric vapour sorption (GVS)
- Format: physicochemical
- measurementConditions: from 50% RH to 0% RH, 25° C.
Return type: number; implicit unit wt %.

>  <compound>
COc1cc(C2(F)CCN(C)CC2)ccc1-c1cc(Nc2cnc(C#N)cn2)n[nH]1 [maleate pattern B]

>  <numericReadout>
2.5

$$$$

If you can, please state the reported GVS weight loss, initial desorption cycle value of COc1cc(C2(F)CCN(C)CC2)ccc1-c1cc(Nc2cnc(C#N)cn2)n[nH]1 [Besylate Pattern A] .
2.5

Look up GVS weight loss, initial desorption cycle for this compound: COc1cc(C2(F)CCN(C)CC2)ccc1-c1cc(Nc2cnc(C#N)cn2)n[nH]1 [Naphthalene-2-Sulfonate Pattern A]
1

---

- protocolText: Solubility of the salts in biorelevant media
- Assay type: physicochemical
- measurementConditions: Fasted State Simulated Intestinal Fluid, 25° C., 24 h, HPLC
Structures can show the parent of a compound that is named as a salt.
Each record here notes measured solubility FaSSIF (pH 6.71).
Your answer is read as mg/mL, so omit the unit and give the number.

Below, each entry is followed by its recorded solubility FaSSIF (pH 6.71) result.
>  <compound>
COc1cc(C2(F)CCN(C)CC2)ccc1-c1cc(Nc2cnc(C#N)cn2)n[nH]1 [tosylate pattern C]

>  <solubility FaSSIF (pH 6.71) [mg/mL]>
0.04

$$$$
>  <compound>
COc1cc(C2(F)CCN(C)CC2)ccc1-c1cc(Nc2cnc(C#N)cn2)n[nH]1 [besylate pattern B]

>  <solubility FaSSIF (pH 6.71) [mg/mL]>
0.04

$$$$
>  <compound>
COc1cc(C2(F)CCN(C)CC2)ccc1-c1cc(Nc2cnc(C#N)cn2)n[nH]1 [hydrochloride pattern C]

>  <solubility FaSSIF (pH 6.71) [mg/mL]>
0.15

$$$$

# ---- query compound ----
Which measured solubility FaSSIF (pH 6.71) value corresponds to COc1cc(C2(F)CCN(C)CC2)ccc1-c1cc(Nc2cnc(C#N)cn2)n[nH]1 [maleate pattern B] ?
0.07

---

Counter-ions that a name gives are not always drawn.
Ranges used to classify Aqueous solubility mg/mL 24 h: class 0 (below 1 mg/mL), class 1 (1 mg/mL to below 2 mg/mL), class 2 (2 mg/mL or more)

>  <molecule>
COc1cc(C2(F)CCN(C)CC2)ccc1-c1cc(Nc2cnc(C#N)cn2)n[nH]1 [malonate pattern B]

>  <assignedCategory>
class 2

$$$$
>  <molecule>
COc1cc(C2(F)CCN(C)CC2)ccc1-c1cc(Nc2cnc(C#N)cn2)n[nH]1 [bis-maleate pattern B]

>  <assignedCategory>
class 0

$$$$
>  <molecule>
COc1cc(C2(F)CCN(C)CC2)ccc1-c1cc(Nc2cnc(C#N)cn2)n[nH]1 [oxalate pattern A]

>  <assignedCategory>
class 2

$$$$

Which of the defined bands does the recorded Aqueous solubility mg/mL 24 h of COc1cc(C2(F)CCN(C)CC2)ccc1-c1cc(Nc2cnc(C#N)cn2)n[nH]1 [sulphate pattern D] sit within?
class 1

Assign a category based on measured Aqueous solubility mg/mL 24 h for COc1cc(C2(F)CCN(C)CC2)ccc1-c1cc(Nc2cnc(C#N)cn2)n[nH]1 [hydrochloride pattern C] and give only the class name.
class 2

Class (by measured Aqueous solubility mg/mL 24 h) for COc1cc(C2(F)CCN(C)CC2)ccc1-c1cc(Nc2cnc(C#N)cn2)n[nH]1 [compound of formula (1)]
class 0

---

- protocolText: Gravimetric vapour sorption (GVS)
- Type: physicochemical
- measurementConditions: from 50% RH to 0% RH, 25° C.
reportedProperty: GVS weight loss, initial desorption cycle (wt %)
Report only the number, with the unit wt % understood.

The examples below pair each entry with its known result.
>  <molecule>
COc1cc(C2(F)CCN(C)CC2)ccc1-c1cc(Nc2cnc(C#N)cn2)n[nH]1 [besylate pattern B]

>  <numericReadout>
1

$$$$
>  <molecule>
COc1cc(C2(F)CCN(C)CC2)ccc1-c1cc(Nc2cnc(C#N)cn2)n[nH]1 [Tosylate Pattern A]

>  <numericReadout>
3.5

$$$$

Shift focus to the following entry.
Bench note: what GVS weight loss, initial desorption cycle did COc1cc(C2(F)CCN(C)CC2)ccc1-c1cc(Nc2cnc(C#N)cn2)n[nH]1 [malonate pattern B] show?
5

---

solubility FeSSIF (pH 5.14) by entry:
- protocolText: Solubility of the salts in biorelevant media
- Format: physicochemical
- measurementConditions: Fed State Simulated Intestinal Fluid, 25° C., 24 h, HPLC
Counter-ions that a name gives are not always drawn.
Give the quantity in mg/mL, number only.

Answered cases to consult:
>  <compound>
COc1cc(C2(F)CCN(C)CC2)ccc1-c1cc(Nc2cnc(C#N)cn2)n[nH]1 [malonate pattern B]

>  <solubility FeSSIF (pH 5.14) (mg/mL)>
0.27

$$$$
>  <compound>
COc1cc(C2(F)CCN(C)CC2)ccc1-c1cc(Nc2cnc(C#N)cn2)n[nH]1 [tosylate pattern C]

>  <solubility FeSSIF (pH 5.14) (mg/mL)>
0.61

$$$$
>  <compound>
COc1cc(C2(F)CCN(C)CC2)ccc1-c1cc(Nc2cnc(C#N)cn2)n[nH]1 [hydrochloride pattern C]

>  <solubility FeSSIF (pH 5.14) (mg/mL)>
0.61

$$$$
>  <compound>
COc1cc(C2(F)CCN(C)CC2)ccc1-c1cc(Nc2cnc(C#N)cn2)n[nH]1 [maleate pattern B]

>  <solubility FeSSIF (pH 5.14) (mg/mL)>
0.57

$$$$

Fill blank: measured solubility FeSSIF (pH 5.14) of the compound COc1cc(C2(F)CCN(C)CC2)ccc1-c1cc(Nc2cnc(C#N)cn2)n[nH]1 [besylate pattern B] is ____.
0.57

---

We begin with a simple list: items and their reported solubility FaSSGF (pH 1.37).
- protocolText: Solubility of the salts in biorelevant media
- Assay type: physicochemical
- measurementConditions: Fasted State Simulated Gastric Fluid, 25° C., 24 h, HPLC
Where a name gives a salt, the structure may show the parent alone.
Give the value, in units of mg/mL, as a plain number.

Consider the following illustrative entries.
>  <compound>
COc1cc(C2(F)CCN(C)CC2)ccc1-c1cc(Nc2cnc(C#N)cn2)n[nH]1 [malonate pattern B]

>  <numericReadout>
3.24

$$$$
>  <compound>
COc1cc(C2(F)CCN(C)CC2)ccc1-c1cc(Nc2cnc(C#N)cn2)n[nH]1 [besylate pattern B]

>  <numericReadout>
0.55

$$$$
>  <compound>
COc1cc(C2(F)CCN(C)CC2)ccc1-c1cc(Nc2cnc(C#N)cn2)n[nH]1 [tosylate pattern C]

>  <numericReadout>
0.32

$$$$
>  <compound>
COc1cc(C2(F)CCN(C)CC2)ccc1-c1cc(Nc2cnc(C#N)cn2)n[nH]1 [maleate pattern B]

>  <numericReadout>
3.97

$$$$

Here is another compound to look at.
Data request, read-out solubility FaSSGF (pH 1.37), for COc1cc(C2(F)CCN(C)CC2)ccc1-c1cc(Nc2cnc(C#N)cn2)n[nH]1 [hydrochloride pattern C]
8.39

---

Reported Aqueous solubility mg/mL 24 h values are given for each entry in this list.
The answer is to be given in mg/mL; state only the numeric part.

>  <molecule>
COc1cc(C2(F)CCN(C)CC2)ccc1-c1cc(Nc2cnc(C#N)cn2)n[nH]1 [tosylate pattern C]

>  <unitAbbreviation>
mg/mL

>  <numericReadout>
1.55

$$$$
>  <molecule>
COc1cc(C2(F)CCN(C)CC2)ccc1-c1cc(Nc2cnc(C#N)cn2)n[nH]1 [maleate pattern B]

>  <unitAbbreviation>
mg/mL

>  <numericReadout>
1.4

$$$$

// lookup Aqueous solubility mg/mL 24 h for COc1cc(C2(F)CCN(C)CC2)ccc1-c1cc(Nc2cnc(C#N)cn2)n[nH]1 [bis-besylate pattern B]
0.06

Return reported Aqueous solubility mg/mL 24 h; argument: COc1cc(C2(F)CCN(C)CC2)ccc1-c1cc(Nc2cnc(C#N)cn2)n[nH]1 [besylate pattern B]
1.18
